molecular target: Beta-2 adrenergic receptor (Homo sapiens); experiment: Adrenergic Receptor Binding Assay: The study of binding to human adrenergic beta1 and beta2 receptors was performed using commercial membranes prepared from Sf9 cells where they are overexpressed (Perkin Elmer). The membrane suspensions (16 μg/well for beta1 and 5 μg/well for beta2) in assay buffer (75 mM Tris/HCl with 12.5 mM MgCl2 and 2 mM EDTA pH=7.4) were incubated with 0.14 or 0.6 nM of 3H-CGP12177 (Amersham) for beta 1 and beta 2 receptors respectively in a final volume of 250 μl, in GFC Multiscreen 96 well plates (Millipore) previously treated with assay buffer containing 0.3% PEI (Sigma). Non specific binding was measured in the presence of 1 μM propanolol. Incubation was maintained for 60 minutes at room temperature and with gentle shaking. The binding reactions were terminated by filtration and washing with 2.5 volumes of Tris/HCl 50 mM pH=7.4.
Sequence (P07550 whole entry): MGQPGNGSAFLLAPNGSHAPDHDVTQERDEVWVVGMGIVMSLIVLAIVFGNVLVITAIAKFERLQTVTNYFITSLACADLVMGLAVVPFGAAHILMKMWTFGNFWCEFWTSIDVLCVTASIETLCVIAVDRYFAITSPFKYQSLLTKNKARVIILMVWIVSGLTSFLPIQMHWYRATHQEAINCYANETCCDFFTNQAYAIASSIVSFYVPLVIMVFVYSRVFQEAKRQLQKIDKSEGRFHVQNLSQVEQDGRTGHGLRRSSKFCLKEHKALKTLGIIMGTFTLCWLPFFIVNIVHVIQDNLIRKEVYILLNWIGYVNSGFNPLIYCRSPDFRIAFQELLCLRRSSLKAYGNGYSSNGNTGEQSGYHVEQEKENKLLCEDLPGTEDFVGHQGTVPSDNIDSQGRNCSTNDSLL
reported-endpoint: IC50 (nM)
Give just the number in nM; leave the unit off.

CN(CCC(=O)Nc1ccc(CNC[C@H](O)c2ccc(O)c3[nH]c(=O)ccc23)cc1Cl)[C@H]1CC[C@H](OC(=O)C(O)(c2cccs2)c2cccs2)CC1
6.7
COc1cc(NC(=O)CCN(C)[C@H]2CC[C@H](OC(=O)C(O)(c3cccs3)c3cccs3)CC2)c(Cl)cc1CNC[C@H](O)c1ccc(O)c2[nH]c(=O)ccc12
8.5

Now for another entry.
(Q) Param item = CN(CCOc1ccc(CCNC[C@H](O)c2ccc(O)c3[nH]c(=O)ccc23)cc1)C1CCC(OC(=O)C(O)(c2cccs2)c2cccs2)CC1 (stereo partly drawn) ; retrieve measured IC50.
(A) 36
